Please go through the items and note down their ER.
Run Conditions: not told
Give bare numbers.

CCN1C(=CC=Cc2oc3cc(OC)ccc3[n+]2CC)Oc2cc(OC)ccc21 [7,6,6'-dimethoxy]	-1.31
CCN1C(=CC=Cc2sc3ccc4ccccc4c3[n+]2CC)Sc2ccc3ccccc3c21 [Dye 12]	-1.12
CCN1C(=CC=Cc2oc3ccc(S(=O)(=O)[O-])cc3[n+]2CC)Oc2ccc(S(=O)(=O)O)cc21 [7,5,5'-disulfo]	-1.27
CCN1C(=CC=Cc2sc3cc(F)ccc3[n+]2CC)Sc2cc(F)ccc21 [17,6,6'-difluoro]	-1.06

Note to self: ER recorded for CCN1C(=CC(C)=Cc2sc3ccccc3[n+]2CC)Sc2ccccc21 [Dye 11] was -1.16

* * *

Test system: Bacillus pumilus strain K-1
Experiment Summary: Inhibition of bacterial growth, filter paper on inoculated agar plates
Type: cell-based
Run Conditions: Bacillus pumilus, K1, Table IX; 10^-3 M; read-out: Diameter of Inhibition
Measure: zone of inhibition at 1000 µM
Respond with a number, then the unit of measure.

Below, each entry is followed by its recorded zone of inhibition at 1000 µM result.
CCN1C(=CC=CC=Cc2oc3ccccc3[n+]2CC)Oc2ccccc21	21 mm
CCN1C(=CC=Cc2oc3ccc(C)cc3[n+]2CC)Oc2ccc(C)cc21	27 mm
CCN1C(=CC=Cc2n(CC)c3nc4ccccc4nc3[n+]2CC)N(CC)c2nc3ccccc3nc21	13 mm
CCN1C(=CC=Cc2sc3ccccc3[n+]2CC)Sc2ccccc21	19 mm

Proceed to the following item.
Noted for "CCN1C(=CC=Cc2sc3ccc(Cl)cc3[n+]2CC)Sc2ccc(Cl)cc21" : its zone of inhibition at 1000 µM reads 14 mm

* * *

Run Conditions: not told
Measure: reduction potential (ER) (volts)
Numbers only, in volts.

Quick one: give me reduction potential (ER) for each item below, same order please.
1. CCN1C(=Cc2sc3ccccc3[n+]2C)C=Cc2ccccc21 [Dye 14]
2. CCN1C(=Cc2ccc3ccccc3[n+]2CC)Sc2cc([N+](=O)[O-])ccc21 [Dye 28]
3. CCN1C(=CC=Cc2sc3cc4ccccc4nc3[n+]2CC)Sc2cc3ccccc3nc21 [Dye 27]

## Output
-1.08
-0.60
-0.63

Record reduction potential (ER) for all entries; do not skip any.
1. CCN1C(=CN=Nc2sc3ccccc3[n+]2CC)Sc2ccccc21 [Dye 26]
2. CCN1C(=CC=Cc2sc3ccc(Cl)cc3[n+]2CC)Sc2ccc(Cl)cc21 [Dye 20]
3. CCN1C(=CC(C)=Cc2sc3ccccc3[n+]2CC)Sc2ccccc21 [Dye 11]

## Output
1: -0.64; 2: -0.86; 3: -1.16

* * *

Run Conditions: not told
Measure: reduction potential (ER) (volts)
Numbers only, in volts.

Please review the following examples before continuing.
CCN1C(=CC=Cc2oc3cc(Cl)ccc3[n+]2CC)Oc2cc(Cl)ccc21	-1.18
CCN1C(=CC=Cc2sc3ccccc3[n+]2CC)Sc2ccccc21	-1.00
CCC(=Cc1sc2ccc(Cl)cc2[n+]1CC)C=C1Sc2ccc(Cl)cc2N1CC	-1.06

Required: reduction potential (ER), one value per compound below.
1. Clc1ccc2nc3c(nc2c1)N(c1ccccc1)C(=CC=Cc1n(-c2ccccc2)c2nc4ccc(Cl)cc4nc2[n+]1-c1ccccc1)N3c1ccccc1
2. CCN1C(=CC=Cc2oc3ccc(S(=O)(=O)O)cc3[n+]2CC)Oc2ccc(S(=O)(=O)[O-])cc21

## Output
1: -0.65; 2: -1.27

* * *

Test system: Escherichia coli, Strain B
Experiment Summary: Inhibition of bacterial growth, filter paper technique
Assay type: cell-based
Run Conditions: Table VIII; 10^-3 molar; Gram -; 37° C./48 hrs
Measure: Area of Inhibition (diameter)

Some solved cases for reference:
CCN1C(=Cc2oc3ccccc3[n+]2CC)Oc2ccccc21 [Dye 1]	No
CCN1C(=CC=Cc2n(CC)c3nc4ccccc4nc3[n+]2CC)N(CC)c2nc3ccccc3nc21 [Dye 24]	No
CCN1C(=CC=Cc2oc3ccccc3[n+]2CC)Oc2ccccc21 [Dye 7]	No
Cn1c(-c2ccccc2)c(C=CC=C2C(c3ccccc3)=[N+](C)c3ccccc32)c2ccccc21 [Dye 33]	No
CCN1C(=CC=Cc2sc3ccccc3[n+]2CC)Sc2ccccc21 [Dye 17]	No

Now let's try a different one.
Lab note: measured Area of Inhibition (diameter) of CCN1C(=CC=CC=Cc2oc3ccccc3[n+]2CC)Oc2ccccc21 [Dye 21] was No

* * *

// % Bound collected for Bacillus pumilus (K-1)
Answers are plain numbers, in %.

Here's what some known entries look like.
CCN1C(=CC=Cc2oc3cc(S(=O)(=O)O)ccc3[n+]2CC)Oc2cc(S(=O)(=O)[O-])ccc21	2.6
Clc1ccc2nc3c(nc2c1)N(c1ccccc1)C(=CC=Cc1n(-c2ccccc2)c2nc4ccc(Cl)cc4nc2[n+]1-c1ccccc1)N3c1ccccc1	92.6
CCN1C(=CC=CC=Cc2oc3ccccc3[n+]2CC)Oc2ccccc21	99.4
CCN1C(=Cc2sc3ccccc3[n+]2C)C=Cc2ccccc21	58.3
CCN1C(=CC=Cc2oc3ccc(S(=O)(=O)O)cc3[n+]2CC)Oc2ccc(S(=O)(=O)[O-])cc21	3.3

Dear colleague, could you send me % Bound for each of the items below? Thanks.
1. CCN1C(=CC=Cc2n(CC)c3nc4ccccc4nc3[n+]2CC)N(CC)c2nc3ccccc3nc21
2. CCN1C(=Cc2ccc3ccccc3[n+]2CC)Sc2cc([N+](=O)[O-])ccc21

## Output
32.8
57.3

* * *

As an illustration, consider measured % Bound for compounds on Bacillus pumilus (K-1).

Field: example entries. Status: answers known.
CCN1C(=CC=Cc2sc3ccc4ccccc4c3[n+]2CC)Sc2ccc3ccccc3c21 [Dye 12]	93.1%
CCN1C(=CC=Cc2scc(-c3ccccc3)[n+]2CC)SC=C1c1ccccc1 [Dye 3]	11.2%
CCN1C(=CN=Nc2sc3ccccc3[n+]2CC)Sc2ccccc21 [Dye 26]	56.3%
Cn1c(-c2ccccc2)c(C=CC=C2C(c3ccccc3)=[N+](C)c3c2ccc2ccccc32)c2ccc3ccccc3c21 [Dye 34]	75.0%
Cn1c(-c2ccccc2)c(C=Cc2sc3cc([N+](=O)[O-])c(Cl)cc3[n+]2C)c2ccccc21 [Dye 31]	54.2%

Consider the following items and state reported % Bound for each.
1. CCN1C(=CC=Cc2oc3ccc(OC(C)=O)cc3[n+]2CC)Oc2ccc(OC(C)=O)cc21 [Dye 10]
2. Cn1c(-c2ccccc2)c(C=CC=C2C(c3ccccc3)=[N+](C)c3ccccc32)c2ccccc21 [Dye 33]
3. CC[n+]1c(C=Cc2c(-c3cccnc3)n(C)c3ccccc23)sc2cc([N+](=O)[O-])ccc21 [Dye 32]

## Output
68.8%
83.7%
61.0%

I looked up CCN1C(=CC=Cc2sc3ccc(Cl)cc3[n+]2CC)Sc2ccc(Cl)cc21 [Dye 20] and its % Bound for Bacillus pumilus (K-1) was 76.3%

* * *

Run Conditions: not told
Measure: reduction potential (ER) (volts)
Answers are plain numbers, in volts.

Look over these answered cases.
Cn1c(-c2ccccc2)c(C=CC=C2C(c3ccccc3)=[N+](C)c3ccccc32)c2ccccc21	-0.20
CCN1C(=CC=Cc2oc3cc(OC)ccc3[n+]2CC)Oc2cc(OC)ccc21	-1.31
Cn1c(-c2ccccc2)c(C=CC=C2C(c3ccccc3)=[N+](C)c3c2ccc2ccccc32)c2ccc3ccccc3c21	-0.11
CCN1C(=CC=Cc2n(CC)c3nc4ccccc4nc3[n+]2CC)N(CC)c2nc3ccccc3nc21	-0.79
CCN1C(=CC=Cc2scc(-c3ccccc3)[n+]2CC)SC=C1c1ccccc1	-1.35

Your task in this section: give reduction potential (ER) for each listed record.
1. CC[n+]1c(C=Cc2c(-c3cccnc3)n(C)c3ccccc23)sc2cc([N+](=O)[O-])ccc21
2. CCN1C(=CC=Cc2oc3cc(S(=O)(=O)O)ccc3[n+]2CC)Oc2cc(S(=O)(=O)[O-])ccc21
3. CCN1C(=CC=CC=Cc2sc3ccccc3[n+]2CC)Sc2ccccc21
4. CCN1C(=CC=Cc2oc3ccc(OC(C)=O)cc3[n+]2CC)Oc2ccc(OC(C)=O)cc21
5. CCN1C(=Cc2sc3ccc4ccccc4c3[n+]2CC)Sc2ccc3ccccc3c21
6. CCN1C(=CC=CC=Cc2oc3ccccc3[n+]2CC)Oc2ccccc21
7. Cn1c(-c2ccccc2)c(C=Cc2sc3cc([N+](=O)[O-])c(Cl)cc3[n+]2C)c2ccccc21
8. CCN1C(=CC=Cc2sc3ccc4ccccc4c3[n+]2CC)Sc2ccc3ccccc3c21

## Output
-0.32
-1.26
-0.83
-1.17
-1.60
-0.83
-0.41
-1.12

* * *

Run Conditions: not told
Measure: ER
Answers are plain numbers.

CCN1C(=CC=Cc2oc3ccc(OC(C)=O)cc3[n+]2CC)Oc2ccc(OC(C)=O)cc21 [Dye 10]	-1.17

// input: 4 compounds below; output: ER for each
1. CCN1C(=CC=Cc2oc3ccccc3[n+]2CC)Oc2ccccc21
2. CCN1C(=CC=Cc2scc(-c3ccccc3)[n+]2CC)SC=C1c1ccccc1
3. CCN1C(=Cc2oc3ccccc3[n+]2CC)Oc2ccccc21
4. CCN1C(=CC=Cc2sc3ccccc3[n+]2CC)Sc2ccccc21

## Output
-1.26
-1.35
-1.69
-1.00
